Measured values drawn from patent US20230303570A1 for this set.

Biological target: SRC (Homo sapiens)
Construct: purchased Carna Biosciences
Sequence (P12931 whole entry): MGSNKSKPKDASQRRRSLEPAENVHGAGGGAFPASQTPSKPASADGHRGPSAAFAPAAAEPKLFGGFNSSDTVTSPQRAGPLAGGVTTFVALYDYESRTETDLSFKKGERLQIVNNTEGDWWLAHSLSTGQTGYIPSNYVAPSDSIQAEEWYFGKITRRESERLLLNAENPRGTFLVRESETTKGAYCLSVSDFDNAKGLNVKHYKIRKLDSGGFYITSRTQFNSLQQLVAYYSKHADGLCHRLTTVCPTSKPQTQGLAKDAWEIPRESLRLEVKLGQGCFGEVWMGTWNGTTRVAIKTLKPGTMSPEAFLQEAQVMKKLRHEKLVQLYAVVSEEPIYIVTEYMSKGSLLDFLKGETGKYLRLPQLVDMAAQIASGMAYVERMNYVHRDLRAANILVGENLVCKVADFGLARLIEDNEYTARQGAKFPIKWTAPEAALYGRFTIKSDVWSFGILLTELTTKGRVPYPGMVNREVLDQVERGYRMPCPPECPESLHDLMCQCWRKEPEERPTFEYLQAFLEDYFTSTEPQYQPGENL
Assay: In vitro kinase assay, SRC (Caliper EZ Reader conversion)
Assay type: biochemical
Conditions: read-out: SRC IC50
property_label: IC50

Readout IC50 for Clc1ccccc1C1=Cc2cnc(Nc3cccnc3)nc2N2CCN=C12 [Compound 15] , test system SRC (Homo sapiens), was 0.1 to 10 µM

Record for OCc1cccc(Nc2ncc3c(n2)N2CCN=C2C(c2ccccc2Cl)=C3)c1 [Compound 13] under target or system SRC (Homo sapiens): IC50 reported as < 0.1 µM

Bench note, SRC (Homo sapiens): C1=C(c2ccccn2)C2=NCCN2c2nc(Nc3ccncc3)ncc21 [Compound 44] , IC50 reads 0.1 to 10 µM

Response field IC50 (SRC (Homo sapiens)) for item Clc1cccc(Cl)c1C1=Cc2cnc(N3CCNCC3)nc2N2CCN=C12 [Compound 50] : > 10 µM

CCNc1ncc2c(n1)N1CCCN=C1C(c1c(C)ccc3[nH]ncc13)=C2 [Compound 66] on SRC (Homo sapiens) gives IC50 = 0.1 to 10 µM

Response field IC50 (SRC (Homo sapiens)) for item CN1CCN(CCNc2ncc3c(n2)N2CCN=C2C(c2c(Cl)cccc2Cl)=C3)CC1 [Compound 48] : 0.1 to 10 µM

Form field, IC50 with SRC (Homo sapiens), item Fc1cc(Nc2ncc3c(n2)N2CCN=C2C(c2ccc(Cl)cc2Cl)=C3)ccc1N1CCNCC1 [Compound 1] : < 0.1 µM

Field IC50 (SRC (Homo sapiens)), entry Fc1ccccc1Nc1ncc2c(n1)N1CCCN=C1C(c1ccccc1)=C2 [Compound 56] : > 10 µM

Let me check: C1=C(c2ccccc2)C2=NCCCN2c2nc(Nc3ccncc3)ncc21 [Compound 53] , system SRC (Homo sapiens), measured IC50 is > 10 µM
